Values compiled from paper PMC12416549.

Collected apparent Kd (screen) values appear next to each entry.
# targetUnderTest: T1, TNFR1 (Homo sapiens, UniProt P19438)
# T1 chain: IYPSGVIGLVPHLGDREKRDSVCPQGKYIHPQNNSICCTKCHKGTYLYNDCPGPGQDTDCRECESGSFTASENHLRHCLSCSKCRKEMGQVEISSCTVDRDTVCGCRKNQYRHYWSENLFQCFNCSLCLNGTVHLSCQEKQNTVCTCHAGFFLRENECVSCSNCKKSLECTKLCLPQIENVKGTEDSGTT
# methodSummary: yeast display SC50
observationType: apparent Kd (screen)

1) E61G (designed binder) SMEEEVEKAAKEYEKKKKEAIEKHLEKLKAKDKEAAERFLKELEEAAKEYAKDEAKTMSEGEAKRRAKKYKEKVLLSELSEEEQKEIKEAEEKLVRTILKYVEEAAK    1.54 nM
2) E45C (designed binder) SMEEEVEKAAKEYEKKKKEAIEKHLEKLKAKDKEAAERFLKELECAAKEYAKDEAKTMSEEEAKRRAKKYKEKVLLSELSEEEQKEIKEAEEKLVRTILKYVEEAAK    1.27 nM
3) K17W (designed binder) SMEEEVEKAAKEYEKKWKEAIEKHLEKLKAKDKEAAERFLKELEEAAKEYAKDEAKTMSEEEAKRRAKKYKEKVLLSELSEEEQKEIKEAEEKLVRTILKYVEEAAK    1.16 nM
4) A105F (designed binder) SMEEEVEKAAKEYEKKKKEAIEKHLEKLKAKDKEAAERFLKELEEAAKEYAKDEAKTMSEEEAKRRAKKYKEKVLLSELSEEEQKEIKEAEEKLVRTILKYVEEFAK    3 nM
